TARGET_DESC: TLR7 (Homo sapiens)
METHOD_NOTES: Reporter gene assay, HEK-Blue TLR7 reporter cells (SEAP)
RECORDED_METRIC: pEC50
Give only the number. pEC50 is defined as minus log10 of concentration in molar units.

molecule="CCCCc1nc2c(N)nc3ccsc3c2n1Cc1ccc(CNC2CCCN(C(=O)OC(C)(C)C)C2)cc1 (stereo not shown)" recorded_metric=pEC50 reported_result=7.02
molecule=CCCCc1nc2c(N)nc3ccsc3c2n1Cc1nc(CNCc2cc[nH]c2)cs1 recorded_metric=pEC50 reported_result=6.96

Turning now to a further molecule:
The value of pEC50 measured for the molecule `CCCCc1nc2c(N)nc3ccsc3c2n1Cc1nc(CNCCCCCO)cs1` turned out to be 6.51

----------
Form field: pEC50 (one value per entry).
TARGET_DESC: TLR7 (Homo sapiens, UniProt Q9NYK1)
Sequence (Q9NYK1 27-1049): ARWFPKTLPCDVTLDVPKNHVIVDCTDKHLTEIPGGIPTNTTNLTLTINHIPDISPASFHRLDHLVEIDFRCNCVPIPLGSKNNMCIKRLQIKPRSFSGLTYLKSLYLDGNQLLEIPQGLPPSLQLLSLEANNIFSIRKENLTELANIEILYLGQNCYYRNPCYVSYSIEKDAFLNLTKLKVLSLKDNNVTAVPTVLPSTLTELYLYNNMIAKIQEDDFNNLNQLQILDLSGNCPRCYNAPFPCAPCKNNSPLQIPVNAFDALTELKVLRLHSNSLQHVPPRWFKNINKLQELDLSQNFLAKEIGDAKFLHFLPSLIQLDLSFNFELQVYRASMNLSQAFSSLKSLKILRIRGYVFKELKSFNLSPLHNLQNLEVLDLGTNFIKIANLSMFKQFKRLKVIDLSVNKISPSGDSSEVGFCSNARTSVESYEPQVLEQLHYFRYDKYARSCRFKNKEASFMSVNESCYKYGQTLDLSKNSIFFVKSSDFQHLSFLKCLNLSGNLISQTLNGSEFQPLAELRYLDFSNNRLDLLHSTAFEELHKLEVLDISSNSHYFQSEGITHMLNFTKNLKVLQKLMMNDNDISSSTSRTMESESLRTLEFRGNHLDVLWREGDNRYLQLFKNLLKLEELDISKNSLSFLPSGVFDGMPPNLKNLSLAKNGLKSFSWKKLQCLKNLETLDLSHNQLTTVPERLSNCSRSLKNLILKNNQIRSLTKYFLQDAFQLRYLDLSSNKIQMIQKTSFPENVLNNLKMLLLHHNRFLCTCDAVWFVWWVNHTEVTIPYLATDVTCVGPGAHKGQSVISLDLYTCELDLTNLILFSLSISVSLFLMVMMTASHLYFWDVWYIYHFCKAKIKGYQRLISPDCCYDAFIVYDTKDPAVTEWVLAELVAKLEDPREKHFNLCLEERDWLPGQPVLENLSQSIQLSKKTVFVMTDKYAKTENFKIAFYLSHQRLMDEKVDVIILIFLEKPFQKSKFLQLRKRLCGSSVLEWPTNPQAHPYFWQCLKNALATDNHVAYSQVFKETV
METHOD_NOTES: Reporter gene assay, HEK-Blue TLR7 reporter cells (SEAP)
Give only the number. pEC50 is defined as minus log10 of concentration in molar units.

structure_smiles_string=CCCCc1nc2c(N)nc3ccsc3c2n1Cc1cccc(CNCC(C)(C)N2CCOCC2)c1 target_desc="TLR7 (Homo sapiens, UniProt Q9NYK1)" reported_result=6.48
structure_smiles_string=CCCCc1nc2c(N)nc3ccsc3c2n1Cc1ccc(CN2CCCCC2)cc1 target_desc="TLR7 (Homo sapiens, UniProt Q9NYK1)" reported_result=8.42
structure_smiles_string=CCCCc1nc2c(N)nc3ccsc3c2n1Cc1cccc(CN2CCNCC2)c1 target_desc="TLR7 (Homo sapiens, UniProt Q9NYK1)" reported_result=7.20
structure_smiles_string=CCCCc1nc2c(N)nc3ccsc3c2n1Cc1cccc(CNCc2ccc(CO)cc2)c1 target_desc="TLR7 (Homo sapiens, UniProt Q9NYK1)" reported_result=7.17
structure_smiles_string=CCCCc1nc2c(N)nc3ccsc3c2n1Cc1ccc(CNCc2ccc(CNC(=O)OC(C)(C)C)cc2)cc1 target_desc="TLR7 (Homo sapiens, UniProt Q9NYK1)" reported_result=6.35

Turning now to a further compound:
The value of pEC50 measured for the compound `CCCCc1nc2c(N)nc3ccsc3c2n1CCCCCN1CCN(CCN2CCOCC2)CC1` turned out to be 7.48

----------
TARGET_DESC: TLR8 (Homo sapiens)
Sequence (Q9NR97 27-1041): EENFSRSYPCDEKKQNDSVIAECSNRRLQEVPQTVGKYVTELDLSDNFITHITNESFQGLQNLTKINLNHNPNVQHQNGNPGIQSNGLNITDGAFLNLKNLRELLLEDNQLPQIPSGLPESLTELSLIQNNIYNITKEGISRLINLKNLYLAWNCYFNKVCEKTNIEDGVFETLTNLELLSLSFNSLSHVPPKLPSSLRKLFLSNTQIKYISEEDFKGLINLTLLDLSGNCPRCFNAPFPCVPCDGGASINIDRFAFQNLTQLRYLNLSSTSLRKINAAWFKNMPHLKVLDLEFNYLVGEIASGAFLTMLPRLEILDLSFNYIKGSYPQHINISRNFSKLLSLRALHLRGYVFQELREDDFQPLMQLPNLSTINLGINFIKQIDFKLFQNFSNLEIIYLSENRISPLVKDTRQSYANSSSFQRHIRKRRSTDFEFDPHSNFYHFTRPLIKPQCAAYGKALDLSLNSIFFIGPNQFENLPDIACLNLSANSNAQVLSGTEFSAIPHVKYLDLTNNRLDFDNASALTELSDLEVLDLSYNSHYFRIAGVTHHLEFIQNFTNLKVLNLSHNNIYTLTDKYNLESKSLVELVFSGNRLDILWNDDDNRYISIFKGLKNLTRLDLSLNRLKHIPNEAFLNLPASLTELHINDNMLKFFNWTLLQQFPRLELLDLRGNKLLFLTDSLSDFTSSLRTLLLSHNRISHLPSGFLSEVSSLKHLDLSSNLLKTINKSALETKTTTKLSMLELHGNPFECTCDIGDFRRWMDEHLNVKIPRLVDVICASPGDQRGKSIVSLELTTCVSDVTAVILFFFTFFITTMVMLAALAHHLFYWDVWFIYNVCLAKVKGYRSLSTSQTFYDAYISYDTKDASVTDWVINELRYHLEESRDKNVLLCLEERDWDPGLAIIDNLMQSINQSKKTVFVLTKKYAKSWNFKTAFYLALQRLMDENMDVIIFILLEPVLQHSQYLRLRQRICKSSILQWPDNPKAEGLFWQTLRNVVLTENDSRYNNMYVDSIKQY
METHOD_NOTES: Reporter gene assay, HEK-Blue TLR8 reporter cells (SEAP)
RECORDED_METRIC: EC50

The value of EC50 measured for the molecule CCCCc1nc2c(N)nc3ccsc3c2n1Cc1ccc(CN[C@H](C(=O)O)[C@@H](C)CC)cc1 [Compound 297] turned out to be > 1000 nM

----------
TARGET_DESC: TLR7 (Homo sapiens, UniProt Q9NYK1)
METHOD_NOTES: Reporter gene assay, HEK-Blue TLR7 reporter cells (SEAP)
Form field: EC50 (one value per entry).
API: value field is a number in nM; no unit string.

structure_smiles_string=CCOCc1nc2c(N)nc3ccsc3c2n1Cc1ccc(CN(CC)CC)cc1 recorded_metric=EC50 reported_result=4
structure_smiles_string=CCCCc1nc2c(N)nc3ccsc3c2n1Cc1cccc(CN(CC)CC)c1 recorded_metric=EC50 reported_result=130
structure_smiles_string=CCCCc1nc2c(N)nc3ccsc3c2n1Cc1ccc(CNc2ccc3c(c2)CCN(C(=O)OC(C)(C)C)C3)cc1 recorded_metric=EC50 reported_result=106
structure_smiles_string=CCCCc1nc2c(N)nc3ccsc3c2n1Cc1nc(CNCc2ccc(CO)cc2)cs1 recorded_metric=EC50 reported_result=190

The value of EC50 measured for the molecule `CCCCc1nc2c(N)nc3ccsc3c2n1Cc1ccc(CN2CCC(CNC(=O)OC(C)(C)C)CC2)cc1` turned out to be 53

The value of EC50 measured for the molecule `CCCCc1nc2c(N)nc3ccsc3c2n1Cc1ccc(CN(CC(=O)O)CC(=O)O)cc1` turned out to be 446

----------
System: PBMCs
METHOD_NOTES: PBMC assay, IL-6 release (HTRF)
Format: cell-based
TEST_SETTINGS: PBMCs from healthy donors, overnight, IL-6 induction by HTRF, average of quadruplicate
Form field: pEC50 (one value per entry).
Give only the number. pEC50 is defined as minus log10 of concentration in molar units.

The following compounds have reported results that may help.
compound="CCCCc1nc2c(N)nc3ccsc3c2n1CCCCCO [Compound 172]" target_desc=PBMCs reported_result=6.24
compound="CCCCc1nc2c(N)nc3ccsc3c2n1CCCCCNCC(C)(C)N1CCOCC1 [Compound 177]" target_desc=PBMCs reported_result=6.57
compound="CCCCc1nc2c(N)nc3ccsc3c2n1Cc1cccc(CNCc2cc[nH]c2)c1 [Compound 197]" target_desc=PBMCs reported_result=6.54

The value of pEC50 measured for the compound CCCCc1nc2c(N)nc3ccsc3c2n1CCCCCN1CCN(CCN2CCOCC2)CC1 [Compound 176] turned out to be 7.24

The value of pEC50 measured for the compound CCCCc1nc2c(N)nc3ccsc3c2n1CCCCCN1CCNCC1 [Compound 182] turned out to be 6.80
